Test system: HT-29
test: Cell cycle arrest in human HT-29 cells assessed as accumulation at S phase at 5 uM after 24 hrs by propidium iodide staining based flow cytometric analysis (reference value: 15.6 +/- 0.3%)
Assay type: functional

- compound.structure.string: "O=C1/C(=C/c2ccccc2F)CNC/C1=C\\c1ccccc1F"
  tested.target: "HT-29"
  Activity (%): 22.6
- compound.structure.string: "CCN1C/C(=C\\c2ccc(S(F)(F)(F)(F)F)cc2)C(=O)/C(=C/c2ccc(S(F)(F)(F)(F)F)cc2)C1"
  tested.target: "HT-29"
  Activity (%): 16.5
- compound.structure.string: "CN1C/C(=C\\c2c(F)cc(F)cc2F)C(=O)/C(=C/c2c(F)cc(F)cc2F)C1"
  tested.target: "HT-29"
  Activity (%): 8.1
- compound.structure.string: "CN1C/C(=C\\c2cc(F)c(F)cc2F)C(=O)/C(=C/c2cc(F)c(F)cc2F)C1"
  tested.target: "HT-29"
  Activity (%): 28.3
